SYSTEM: T1, Canine IL-31RA ECD-10His (canine, biotin-labeled in the Octet assay (site not stated))
T1 construct: The ELISA and Octet protocols say only 'IL-31RA' or 'canine IL-31RA'; also called cIL-31RA; canine IL-31 receptor alpha extracellular domain, HIS-tagged
T1 chain: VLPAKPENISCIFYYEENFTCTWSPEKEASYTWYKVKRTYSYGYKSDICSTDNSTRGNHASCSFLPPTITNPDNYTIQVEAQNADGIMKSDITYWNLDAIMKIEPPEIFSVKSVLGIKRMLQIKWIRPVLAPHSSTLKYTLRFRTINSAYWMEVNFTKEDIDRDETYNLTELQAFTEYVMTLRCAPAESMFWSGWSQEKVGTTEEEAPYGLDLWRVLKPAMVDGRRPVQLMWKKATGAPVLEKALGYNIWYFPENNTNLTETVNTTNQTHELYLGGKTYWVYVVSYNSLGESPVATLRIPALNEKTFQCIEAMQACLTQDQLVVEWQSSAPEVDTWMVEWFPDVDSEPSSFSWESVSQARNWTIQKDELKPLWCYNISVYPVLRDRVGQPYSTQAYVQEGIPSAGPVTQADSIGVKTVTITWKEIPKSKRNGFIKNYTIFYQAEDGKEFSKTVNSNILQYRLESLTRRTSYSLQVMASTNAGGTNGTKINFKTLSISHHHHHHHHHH
PROTOCOL TEXT: ELISA on coated canine IL-31RA, anti-canine IgG Fc-HRP (Example 11), the unit is that of the x axis 'Ab Log Conc. (ng/mL)'
# reported EC50; entries follow
Reply with just the number (in ng/mL).

Use these answered entries as a reference point.
- BINDER: "c218D9VH4VL3 (antibody, V domains shown, Caninized antibody; chains tied by name to c218D9VH4-cIgGBm and c218D9VL3-cCK; also called c218D9VH4L3) VH: EVTLQESGPGLVKPSQTLSLTCSFSGFSLSTFGRGVGWIRQRPGRGLEWMGHIWWDDDKYYNPALKSRLSITKDTAKNQVFLQLSSMTTEDTAVYYCARIAGGLRRAPYAMDSWGQGTLVTVSS VL: DIVMTQTPLSLSVSPGETASISCRASENIYSSLAWFRQKPGQSPQLLVYAATNLADGVPDRFSGSGSGTDYTLRISRVEADDTGVYYCQHFRDTPPTFGQGTKLEIKR"
  UNITS SYMBOL: "ng/mL"
  REPORTED RESULT: 3.58
- BINDER: "Chimeric 218D9 (antibody, V domains shown, canine constant regions not specified; also called mouse-canine chimeric 218D9 antibody) VH: QVTLKESGPGILQPSQTLSLTCSFSGFSLSTFGRGVGWIRQPSGKGLDWLTHIWWDDDKYYNPALKSRLTISKDTSKNQVFLKIANVDTADTATYYCARIAGGLRRAPYAMDSWGQGTSVTVSS VL: DIQMTQSPASLSVSVGETVTITCRASENIYSSLAWYQQKQGKSPQLLVYAATNLADGVPSRFSGSGSGTQYSLKINSLQSEDSGNYYCQHFRDTPPTFGGGTKLEIK"
  UNITS SYMBOL: "ng/mL"
  REPORTED RESULT: 3.15

Shifting focus to the binder that follows.
Req: Look up EC50: c218D9VH3VL3 (antibody, V domains shown, Caninized antibody; chains tied by name to c218D9VH3-cIgGBm and c218D9VL3-cCK; also called c218D9VH3L3) VH: EVTLQESGPGLVKPSQTLSLTCSFSGFSLSTFGRGVGWIRQRPGRGLEWMGHIWWDDDKYYNPALKSRLSITKDTAKNQFSLQLSSMTTEDTAVYYCARIAGGLRRAPYAMDSWGQGTLVTVSS VL: DIVMTQTPLSLSVSPGETASISCRASENIYSSLAWFRQKPGQSPQLLVYAATNLADGVPDRFSGSGSGTDYTLRISRVEADDTGVYYCQHFRDTPPTFGQGTKLEIKR
Resp: 3.22
